# experimental-target: HO-2 (rat brain) (Rattus norvegicus)
# Construct: brain microsomes were used as a source of HO-2; from tissue; host or cells: brain microsomal fraction of adult male Sprague-Dawley rats
# Sequence (P23711 whole entry): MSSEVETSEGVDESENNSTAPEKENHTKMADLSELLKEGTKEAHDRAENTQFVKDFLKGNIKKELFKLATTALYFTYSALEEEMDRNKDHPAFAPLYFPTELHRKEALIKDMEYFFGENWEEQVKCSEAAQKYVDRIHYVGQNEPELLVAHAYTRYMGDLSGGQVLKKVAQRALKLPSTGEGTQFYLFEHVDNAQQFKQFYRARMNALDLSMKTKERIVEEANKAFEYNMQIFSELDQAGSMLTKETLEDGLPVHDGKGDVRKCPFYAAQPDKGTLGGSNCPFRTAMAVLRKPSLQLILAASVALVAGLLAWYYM
# test-name: HO enzymatic activity in rat brain microsomal fraction (CO formed from methemalbumin, gas chromatography)
# Format: biochemical
# stated-conditions: rat brain microsomes; average ± standard deviation of replicate experiments; read-out: IC50 HO-2 (rat brain)/μM
Structures can show the parent of a compound that is named as a salt.
parameter: IC50 (µM)

>>> recorded_value("Nc1ccccc1SC[C@@H]1CO[C@@](CCc2ccc(Cl)cc2)(Cn2ccnc2)O1 [dihydrochloride]")
42
>>> recorded_value("[N-]=[N+]=NC[C@@H]1CO[C@@](CCc2ccc(Cl)cc2)(Cn2ccnc2)O1")
38
>>> recorded_value("[O-][S+](CCCn1ccnc1)c1ccccc1 (stereo not drawn) [hydrochloride]")
22
>>> recorded_value("O=C(Cn1cncn1)c1ccc(-c2ccccc2)cc1")
7
>>> recorded_value("OC(CCc1ccc(Cl)cc1)Cn1ccnc1 (stereo not drawn) [hydrochloride]")
4
>>> recorded_value("O=C(CCc1ccccc1)Cn1cnc(-c2ccccc2)n1")
90
>>> recorded_value("CC(C)c1ccc(CCC(=O)Cn2ccnc2)cc1 [hydrochloride]")
0.9
>>> recorded_value("[O-][S+](CCCCn1ccnc1)c1ccccc1 (stereo not drawn) [hydrochloride]")
31
>>> recorded_value("COc1ccc(CCN2CCC(Nc3nc4ccccc4n3Cc3ccccc3)CC2)cc1")
60
>>> recorded_value("N#Cc1ccc(OCC2CO[C@@](CCc3ccc(Cl)cc3)(Cn3ccnc3)O2)cc1 (stereo in doubt) [hydrochloride]")
1.7
>>> recorded_value("Nc1cccc(SC[C@@H]2CO[C@@](CCc3ccc(Cl)cc3)(Cn3ccnc3)O2)c1 [hydrochloride]")
6
>>> recorded_value("Oc1ccc(OCC2CO[C@@](CCc3ccc(Cl)cc3)(Cn3ccnc3)O2)cc1 (stereo in doubt) [hydrochloride]")
7.1
>>> recorded_value("OC(Cn1ccnc1)c1ccc(CCc2ccccc2)cc1 (racemic)")
1
>>> recorded_value("O=C(Cn1ccnc1)c1ccc(CCc2ccccc2)cc1 [hydrochloride]")
0.9
